System: IFV A/WSN/33 (H1N1)
assay.comment: microbe, parasite or virus in culture
Format: cell-based
condition: Influenza A virus, MDCK, 120 h
reported.property: EC50 (nM)

- compound: "O=C1c2c(O)c(=O)ccn2N([C@@H]2c3ccccc3SCc3c2ccc(F)c3F)[C@@H]2COCCN12 [Baloxavir acid, reference compound]"
  reported.property: "EC50"
  limit.operator: "="
  assay.value: 0.44
- compound: "O=C1c2c(O)c(=O)ccn2N([C@@H]2c3ccccc3[Se]Cc3c2ccc(F)c3F)[C@@H]2COCCN12"
  reported.property: "EC50"
  limit.operator: "="
  assay.value: 0.32
- compound: "CP(C)(=O)c1cn2c(c(O)c1=O)C(=O)N1CCOC[C@H]1N2[C@@H]1c2ccccc2SCc2c1ccc(F)c2F"
  reported.property: "EC50"
  limit.operator: "="
  assay.value: 58
- compound: "CCC(CC)O[C@@H]1C=C(C(=O)O)C[C@H](N)[C@H]1NC(C)=O [Oseltamivir acid, reference compound]"
  reported.property: "EC50"
  limit.operator: ">"
  assay.value: 100000
- compound: "CCP(=O)(CC)c1cn2c(c(O)c1=O)C(=O)N1CCOC[C@H]1N2[C@@H]1c2ccccc2SCc2c1ccc(F)c2F"
  reported.property: "EC50"
  limit.operator: "="
  assay.value: 57

---

Tested on: IFV A/PR/8/34 (H1N1)
assay.comment: microbe, parasite or virus in culture
Format: cell-based
condition: Influenza A virus, MDCK, 120 h
pEC50: −log10 of the molar value.
reported.property: pEC50

- molecule: "CP(C)(=O)c1cn2c(c(O)c1=O)C(=O)N1CCOC[C@H]1N2[C@@H]1c2ccccc2SCc2c1ccc(F)c2F [Compound E-1c]"
  limit.operator: "="
  assay.value: 7.17
- molecule: "CCC(CC)O[C@@H]1C=C(C(=O)O)C[C@H](N)[C@H]1NC(C)=O [Oseltamivir acid, reference compound]"
  limit.operator: "<"
  assay.value: 4.00
- molecule: "O=C1c2c(O)c(=O)ccn2N([C@@H]2c3ccccc3SCc3c2ccc(F)c3F)[C@@H]2COCCN12 [Baloxavir acid, reference compound]"
  limit.operator: "="
  assay.value: 9.14
- molecule: "CCP(=O)(CC)c1cn2c(c(O)c1=O)C(=O)N1CCOC[C@H]1N2[C@@H]1c2ccccc2SCc2c1ccc(F)c2F [Compound F-1]"
  limit.operator: "<"
  assay.value: 7.00
- molecule: "O=C1c2c(O)c(=O)ccn2N([C@@H]2c3ccccc3[Se]Cc3c2ccc(F)c3F)[C@@H]2COCCN12 [Compound B-1]"
  limit.operator: "="
  assay.value: 8.96

---

assay.comment: Liver microsomal stability
condition: rat, liver microsomes

- molecule: "O=C1c2c(O)c(=O)ccn2N(C2c3ccccc3[Se]Cc3c2ccc(F)c3F)C2COCCN12 (single isomer, unassigned) [Compound A-1-P2]"
  half-life: "2.88 h"

---

Please consider the recorded IC50 for UniProtKB P03433 in what follows.

- molecule: "O=C1c2c(O)c(=O)ccn2N([C@@H]2c3ccccc3[Se]Cc3c2ccc(F)c3F)[C@@H]2COCCN12 [Compound B-1]"
  IC50: "15 nM"
- molecule: "CP(C)(=O)c1cn2c(c(O)c1=O)C(=O)N1CCOCC1N2C1c2ccccc2SCc2c1ccc(F)c2F (single isomer, unassigned) [Compound E-1b]"
  IC50: "32 nM"
- molecule: "O=C1c2c(O)c(=O)ccn2N(C2c3ccccc3[Se]Cc3c2ccc(F)c3F)C2COCCN12 (single isomer, unassigned) [Compound A-1-P1]"
  IC50: "42 nM"
- molecule: "COC(=O)OCOc1c2n(ccc1=O)N(C1c3ccccc3[Se]Cc3c1ccc(F)c3F)[C@@H]1COCCN1C2=O (stereo partly shown) [Compound C-1]"
  IC50: "1550 nM"
- molecule: "CP(C)(=O)c1cn2c(c(O)c1=O)C(=O)N1CCOCC1N2C1c2ccccc2SCc2c1ccc(F)c2F (single isomer, unassigned) [Compound E-1a]"
  IC50: "31 nM"
- molecule: "O=C1c2c(O)c(=O)ccn2N(C2c3ccccc3[Se]Cc3c2ccc(F)c3F)C2COCCN12 (single isomer, unassigned) [Compound A-1-P2]"
  IC50: "25 nM"
- molecule: "O=C1c2c(O)c(=O)ccn2N([C@@H]2c3ccccc3SCc3c2ccc(F)c3F)[C@@H]2COCCN12 [Baloxavir acid, reference compound]"
  IC50: "14 nM"
